Sourced from PubChem BioAssay (NCI)

System: MCF7 breast
testName: NCI tumour cell line growth inhibition, 48 h

compound	testedOn	GI50
COc1ccc(-n2sc(=O)n(Cc3ccc(COC(=O)C(C)c4ccc(CC(C)C)cc4)cc3)c2=O)cc1 (configuration not stated)	MCF7 breast	1820 nM
ClC1=C(Cl)C(Cl)=C(Cl)C1=Cc1ccc(Cl)cc1	MCF7 breast	386 nM
C=C1CO[C@@H]2C[C@@H]1CC/C(C)=C/CC/C(C)=C/CC[C@@]2(C)O	MCF7 breast	25400 nM
Cc1cc2c(C(C)C)c(O)c(O)c(C=O)c2c(O)c1-c1c(C)cc2c(C(C)C)c(O)c(O)c(C=O)c2c1O (tested in a mixture with another compound)	MCF7 breast	1180 nM
Cc1ccc(-c2cc(/C=N/O)on2)cc1	MCF7 breast	55100 nM
C/C(=N\Nc1cccc(Cl)n1)c1ccccn1	MCF7 breast	2000 nM
CN1CCN(c2ccc3nc4c(nc3c2C(F)(F)F)C(=O)c2ncccc2C4=O)CC1	MCF7 breast	316 nM

* * *

Tested on: HOP-62 NSCLC
testName: NCI tumour cell line growth inhibition, 48 h

compound	TGI
N#Cc1ccccc1Nc1ccccc1S	> 100 µM
O=C1c2ccccc2C(=O)c2sc(Nc3ccc(Cl)c(Cl)c3)nc21	21.3 µM
OC(c1ccccc1)c1c(-c2ccccc2)oc(-c2ccccc2)c1C(O)c1ccccc1 (stereo not given)	27.9 µM
CC(=O)N[C@@H](Cc1ccc(OP(=O)(O)O)cc1)C(=O)N[C@H]1CCC(=O)N2CCC[C@@H](C(=O)NCc3ccc(O)cc3)N2C1=O	> 25 µM
CON	> 100 µM
CC(C)(C)OC(=O)N/N=C(/N)c1ccccc1	> 100 µM
O=C1C2Nc3ccccc3SC2C(=O)N1c1cccc([N+](=O)[O-])c1 (stereo not given)	> 100 µM
CC1(C)S[C@@H]2[C@H](NC(=O)/C=C/c3ccccc3)C(=O)N2[C@H]1C(=O)O	> 100 µM
CC1OC(OC2C(O[C@@H]3C[C@@H]4CC[C@@H]5[C@H](CC[C@]6(C)[C@@H]7[C@H](C[C@@H]56)O[C@]5(CC[C@@H](C)CO5)[C@H]7C)[C@@]4(C)C[C@H]3O)OC(CO)C(OC3OC(CO)C(O)C(O)C3O)C2O)C(O)C(O)C1O (stereo not given in full)	3.22 µM
COC(=O)/C(=N\O)C(C(=O)C=C(C)C)C(=O)C(=O)Nc1ccccc1C (stereo not given)	> 100 µM
C/C(CN1C(=O)c2ccccc2C1=O)=N\NS(=O)(=O)c1ccc(F)cc1	> 100 µM
O=C1CCC(=O)C(C(=O)CCC(=O)Nc2cccc(Cl)c2)C1 (stereo not given)	> 100 µM
CNC(=O)OCCN1c2ccccc2Sc2ccccc21	89.2 µM
CC1(C)O[C@@H](CP(c2ccccc2)c2ccccc2)[C@H](CP(c2ccccc2)c2ccccc2)O1	44.6 µM
CC1CC(NN(C)C)C2(C(N)=O)C(N)=NC(=O)C12C#N (stereo not given)	> 100 µM
Cc1cc(C)c(NS(=O)c2cccc([N+](=O)[O-])c2)c(C)c1 (stereo not given)	> 100 µM
Cc1c(N2C(=O)/C(=C\c3ccc(N(C)C)cc3)N=C2c2ccccc2)c(=O)n(-c2ccccc2)n1C	> 100 µM
NC(=O)NC(=O)C1CCCCC1C(=O)O (stereo not given)	> 100 µM
COC(=O)c1ccc(NCc2cc(O)ccc2O)cc1O	24.4 µM
CCCCOc1ccc(S(=O)(=O)/N=C(\NN)Nc2ccc(Cl)cc2)cc1	38.5 µM
